// provenance: the supplement of paper PMC10307832

Tested on: BEN
experimentalProtocol: relative viability (nuclei count vs DMSO), 5 days (fraction); higher = more cells survive
testConditions: first compound 0.01 µM
metricName: relative viability
Quick one: just the number, no unit, thanks!

Solved cases (2 shown):
compound	relative viability
NC(=O)Nc1cc(-c2cccc(F)c2)sc1C(=O)N[C@H]1CCCNC1 [AZD7762] + COc1cc2c(Oc3ccc(NC(=O)C4(C(=O)Nc5ccc(F)cc5)CC4)cc3F)ccnc2cc1OCCCN1CCOCC1 [Foretinib] (partner 0.25 µM)	0.714
NC(=O)Nc1cc(-c2cccc(F)c2)sc1C(=O)N[C@H]1CCCNC1 [AZD7762] + N=C(N)NC(=N)NCCc1ccccc1 [Phenformin] (partner 250 µM)	0.316

Let us examine a further case.
// lookup relative viability for NC(=O)Nc1cc(-c2cccc(F)c2)sc1C(=O)N[C@H]1CCCNC1 [AZD7762] + Cc1nc(NC(=O)N2CCC[C@H]2C(N)=O)sc1-c1ccnc(C(C)(C)C(F)(F)F)c1 [Alpelisib] (partner 2 µM) 1.21

====

Reported relative viability values are given for each entry in this list.
Test system: NCI-H2023
experimentalProtocol: relative viability (nuclei count vs DMSO), 5 days (fraction); higher = more cells survive
testConditions: first compound 0.5 µM
Reply with just the number.

# count of solved cases: 2
compound	relative viability
CC1(C)CCC(c2ccc(Cl)cc2)=C(CN2CCN(c3ccc(C(=O)NS(=O)(=O)c4ccc(N[C@H](CCN5CCOCC5)CSc5ccccc5)c(S(=O)(=O)C(F)(F)F)c4)cc3)CC2)C1 [Navitoclax] + CC(=O)c1c(C)c2cnc(Nc3ccc(N4CCNCC4)cn3)nc2n(C2CCCC2)c1=O [Palbociclib] (partner 0.5 µM)	0.439
CC1(C)CCC(c2ccc(Cl)cc2)=C(CN2CCN(c3ccc(C(=O)NS(=O)(=O)c4ccc(N[C@H](CCN5CCOCC5)CSc5ccccc5)c(S(=O)(=O)C(F)(F)F)c4)cc3)CC2)C1 [Navitoclax] + Nc1nc2[nH]cc(CCc3ccc(C(=O)N[C@@H](CCC(=O)O)C(=O)O)cc3)c2c(=O)[nH]1 [Pemetrexed] (partner 0.2 µM)	0.201

Which relative viability value belongs to CC1(C)CCC(c2ccc(Cl)cc2)=C(CN2CCN(c3ccc(C(=O)NS(=O)(=O)c4ccc(N[C@H](CCN5CCOCC5)CSc5ccccc5)c(S(=O)(=O)C(F)(F)F)c4)cc3)CC2)C1 [Navitoclax] + COc1cccc2cc(-c3nc([C@H]4CC[C@H](C(=O)O)CC4)n4ncnc(N)c34)[nH]c12 [OSI-027] (partner 0.5 µM) ? 0.416

====

Test system: A-427
experimentalProtocol: relative viability (nuclei count vs DMSO), 5 days (fraction); higher = more cells survive
testConditions: first compound 1.265 µM
metricName: relative viability
Answer with a bare number; do not write a unit.

# example entries with known answers
molecule	assaySystem	relative viability
O=C(O)c1ccc(-c2c[nH]c3ncc(-c4ccccc4)cc23)cc1C1CCCC1 + CC(=O)Nc1cccc(-n2c(=O)n(C3CC3)c(=O)c3c(Nc4ccc(I)cc4F)n(C)c(=O)c(C)c32)c1 [Trametinib] (partner 0.02 µM)	A-427	0.584
O=C(O)c1ccc(-c2c[nH]c3ncc(-c4ccccc4)cc23)cc1C1CCCC1 + Cc1cc(Nc2cc(N3CCN(C)CC3)nc(Sc3ccc(NC(=O)C4CC4)cc3)n2)n[nH]1 [Tozasertib] (partner 0.1 µM)	A-427	0.182
O=C(O)c1ccc(-c2c[nH]c3ncc(-c4ccccc4)cc23)cc1C1CCCC1 + Nc1ncn([C@H]2C[C@H](O)[C@@H](CO)O2)c(=O)n1 [Decitabine] (partner 2 µM)	A-427	0.475
O=C(O)c1ccc(-c2c[nH]c3ncc(-c4ccccc4)cc23)cc1C1CCCC1 + CC(C)C[C@H](NC(=O)[C@H](Cc1ccccc1)NC(=O)c1cnccn1)B(O)O [Bortezomib] (partner 0.002 µM)	A-427	0.849

Turning to the following molecule.
Kindly state the measured relative viability obtained for O=C(O)c1ccc(-c2c[nH]c3ncc(-c4ccccc4)cc23)cc1C1CCCC1 + CC1(C)CCC(c2ccc(Cl)cc2)=C(CN2CCN(c3ccc(C(=O)NS(=O)(=O)c4ccc(N[C@H](CCN5CCOCC5)CSc5ccccc5)c(S(=O)(=O)C(F)(F)F)c4)cc3)CC2)C1 [Navitoclax] (partner 0.5 µM) with A-427. 0.708
